- TEST SYSTEM: human sphingosine-1-phosphate receptor 1 (S1P1) (Homo sapiens (Human), UniProt P21453)
- Sequence (P21453 whole entry, looked up): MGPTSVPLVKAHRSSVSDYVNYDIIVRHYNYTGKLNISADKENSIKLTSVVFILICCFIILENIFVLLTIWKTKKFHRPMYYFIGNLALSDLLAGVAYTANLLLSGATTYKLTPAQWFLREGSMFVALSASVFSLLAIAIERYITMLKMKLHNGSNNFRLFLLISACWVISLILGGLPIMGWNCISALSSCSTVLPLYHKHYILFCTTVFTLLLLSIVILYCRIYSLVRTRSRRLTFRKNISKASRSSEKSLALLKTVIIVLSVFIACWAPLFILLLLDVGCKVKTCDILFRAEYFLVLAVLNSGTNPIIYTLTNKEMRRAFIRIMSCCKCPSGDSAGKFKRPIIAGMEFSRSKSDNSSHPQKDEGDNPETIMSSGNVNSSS
- Sequence (P32121 whole entry partner, looked up): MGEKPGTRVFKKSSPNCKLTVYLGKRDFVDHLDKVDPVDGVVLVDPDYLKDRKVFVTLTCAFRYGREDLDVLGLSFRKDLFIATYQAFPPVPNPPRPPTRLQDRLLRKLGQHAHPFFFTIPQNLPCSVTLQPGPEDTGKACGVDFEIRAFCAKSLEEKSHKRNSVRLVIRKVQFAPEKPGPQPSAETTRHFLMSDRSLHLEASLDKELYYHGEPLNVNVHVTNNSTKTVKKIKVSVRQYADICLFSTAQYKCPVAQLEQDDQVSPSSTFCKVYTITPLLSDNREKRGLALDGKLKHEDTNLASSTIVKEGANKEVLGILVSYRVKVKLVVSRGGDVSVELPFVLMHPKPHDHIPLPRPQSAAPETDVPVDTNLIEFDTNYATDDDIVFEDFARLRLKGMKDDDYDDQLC
- ASSAY REMARKS: β-Arrestin2 recruitment assay (PathHunter), S1P1 CHO-K1 cells
- Type: cell-based
- CONDITION LABEL: CHO-K1; efficacy (SPAN) normalized to fingolimod; read-out: hS1P1 B-arrestin2 SPAN
PROPERTY: Emax

Please review the following examples before continuing.
                                   molecule  measured_value
0  O=C(O)CCn1nnc2cc(-c3noc(-c4ccccc4Br)n3)ccc21 [Compound 134]           < 75%
1  CC(C)(CO)n1nnc2cc(-c3noc(-c4cnccc4C(F)(F)F)n3)ccc21 [Compound 644]           > 75%
2  Cc1occc1-c1noc(-c2ccc3c(c2)nnn3CC(C)(C)O)n1 [Compound 492]           > 75%
3  CC(C)n1nnc2cc(-c3nc(-c4ccccc4)co3)ccc21 [Compound 294]           > 75%
4  c1ccc(-c2noc(-c3ccc4c(c3)nnn4C3CCCCC3)n2)cc1 [Compound 292]           < 75%
5  Cc1ccc(-c2nc(-c3ccc4c(c3)nnn4C(C)C)no2)cn1 [Compound 119]           < 75%
6  Brc1ccccc1-c1noc(-c2ccc3c(c2)nnn3C2CCOCC2)n1 [Compound 233]           < 75%
7  COc1cccc(OC)c1-c1noc(-c2ccc3c(ccn3C(C)C)c2)n1 [Compound 325]           < 75%

--- query ---
COc1cccnc1-c1nc(-c2ccc3c(c2)nnn3C(C)C)no1 [Compound 612] has a reported Emax of > 75%

* * *

- TEST SYSTEM: human sphingosine-1-phosphate receptor 1 (S1P1) (Homo sapiens (Human))
- ASSAY REMARKS: β-Arrestin2 recruitment assay (PathHunter), S1P1 CHO-K1 cells
- Type: cell-based
- CONDITION LABEL: β-arrestin2 recruitment, S1P1 CHO-K1 cells
PROPERTY: hS1P1 B-arrestin2 pEC50

In [3]: df
Out[3]:
                                   compound                               test_system  measured_value
0  N#Cc1cc(-c2nc(-c3ccc4c(c3)NC(=O)CC4)no2)ccc1NCC1CC1 [Compound 471]  human sphingosine-1-phosphate receptor 1 (S1P1) (Homo sapiens (Human))              >5
1  COc1cccc(F)c1-c1noc(-c2ccc3c(c2)nnn3C(C)C)n1 [Compound 260]  human sphingosine-1-phosphate receptor 1 (S1P1) (Homo sapiens (Human))              <5
2  Cc1ccccc1-c1nc(-c2ccc3c(c2)nnn3CC(C)(C)CO)no1 [Compound 505]  human sphingosine-1-phosphate receptor 1 (S1P1) (Homo sapiens (Human))              <5
3  CC(C)n1nnc2cc(-c3nc(-c4cccnc4)no3)ccc21 [Compound 165]  human sphingosine-1-phosphate receptor 1 (S1P1) (Homo sapiens (Human))              <5

--- query ---
Lab note: compound COc1cnccc1-c1nc(-c2ccc3c(ccn3C(C)C)c2)no1 [Compound 391] tested on human sphingosine-1-phosphate receptor 1 (S1P1) (Homo sapiens (Human)); recorded hS1P1 B-arrestin2 pEC50 was >5

The origin of these recorded values is patent US11912693B2.
